All values here come from PubChem BioAssay (NCI).

# Tested on: LOX IMVI melanoma
# test method notes: NCI-60 one-dose screen, 48 h
# experimental context: 10 µM unless noted
The panel holds about 83,000 compounds, 20% with a hit somewhere; the sample as a whole holds those more often. The source made the active and inactive calls. The calls were made as follows: active = growth percent below 10; inactive = the rest.
Outcomes: active, inactive

molecule: CCC(=O)Oc1ccc(-c2ccccc2)cc1Br
class name: inactive

molecule: C=CC(=O)N1CCN(c2cccc(Oc3nccc(Nc4nnc(-c5ccc(Br)cc5)s4)n3)c2)CC1
class name: inactive

molecule: O=c1c2ccccc2n2cnc3ccc(Cl)c1c32
class name: inactive

molecule: COc1c(B(O)O)cccc1-c1nc2c(F)cc3[nH]ncc3c2c2c1CCCC2
class name: active

molecule: CC(=O)N1N=C(c2ccc(Nc3nc(Nc4ccccc4)nc(Nc4ccccc4)n3)cc2)CC1c1ccccc1 (configuration not stated)
class name: inactive

molecule: Cc1c(O)cc(-c2cnc(Nc3ccccc3)s2)c(O)c1C
class name: inactive

molecule: O=C(c1ccncc1)N1N=C(c2ccc(Cl)cc2)C[C@H]1c1cn(-c2ccccc2)nc1-c1ccccc1
class name: inactive

molecule: O=C(Nc1cccc(-c2ccc(Cl)c(C(F)(F)F)c2)c1)C1CCN(Cc2cccc3cccnc23)CC1
class name: active

molecule: COC1=CC(c2ccc[nH]2)=N/C1=C\c1[nH]c(C)c(CC(=O)NCc2ccccc2)c1C
class name: active

molecule: NC(=O)CSc1oc(-c2ccccc2)nc1S(=O)(=O)c1ccc(Br)cc1
class name: inactive

molecule: Nc1nc2ccc(-c3nc4ccc5[nH]ncc5c4c4c3CCCC4)cc2s1
class name: inactive

molecule: COc1cccc(CNc2ccc3ncnc(Nc4ccc(F)c(Cl)c4)c3c2)c1
class name: inactive

molecule: CCOC(=O)C1=C(c2ccccc2)N=C2SC=C(c3ccc(Cl)cc3)N2C1c1ccc(Cl)cc1 (configuration not stated)
class name: inactive

molecule: CCCCCN1C(=O)/C(=c2\sc3n(c2=O)C2C(NN=3)N(CC)C(=O)N2CC)c2ccccc21 (configuration not stated)
class name: active

molecule: COC(=O)[C@]12CCC(C)(C)C[C@H]1[C@H]1/C(=N/OCCc3nn[nH]n3)C[C@@H]3[C@@]4(C)CC[C@H](OC(C)=O)C(C)(C)[C@@H]4CC[C@@]3(C)[C@]1(C)CC2
class name: inactive

molecule: CCOC(=O)c1c2c(n3cccc(F)c13)C(=O)c1ncccc1C2=O
class name: active

molecule: CN1CCN(c2cc(Nc3cc(C4CC4)[nH]n3)nc(Nc3ccc(CC(=O)NCc4cccc(F)c4)cc3)n2)CC1
class name: active

molecule: COc1ccccc1N1CCCCC1
class name: inactive

molecule: COc1cc2nc3cc([N+](=O)[O-])ccc3c(NCCNCC(C)O)c2cc1OC (configuration not stated)
class name: active

molecule: O=C1C(Cl)=C(NCCCCCCNC2=C(Cl)C(=O)c3ccccc3C2=O)C(=O)c2ccccc21
class name: inactive

molecule: O=C(Nc1nc2cc(C(=O)N3CCN(C(c4ccccc4)c4ccccc4)CC3)ccc2o1)c1ccc(NC2CCCCC2)c([N+](=O)[O-])c1
class name: inactive

molecule: C[C@@H](CO)[C@@H]1CCC=C2CC[C@]3(C)[C@H](CC[C@@H]4[C@@]5(C)CCCNC(C)(C)[C@@H]5CC[C@]43C)[C@H]21
class name: active

molecule: CN(C)c1ccc(C(=O)OCCCCCCl)cc1
class name: inactive

molecule: CCC(C)N(CCNc1cc(OC)cc2cccnc12)CC(C)C (configuration not stated)
class name: inactive

molecule: C=CC[Se]C(=O)Cc1c(C)n(C(=O)c2ccc(Cl)cc2)c2ccc(OC)cc12
class name: active

molecule: COc1ccc(Nc2nnc(-c3ccc(OC)c(OC)c3)o2)cc1
class name: inactive

molecule: CCN1CCN(C(=O)[C@]23CCC(C)(C)C[C@@H]2C2=CC[C@@H]4[C@@]5(C)CCC(=O)C(C)(C)[C@@H]5CC[C@@]4(C)[C@]2(C)CC3)CC1
class name: inactive

molecule: CCOC(=O)c1c(NC(=O)c2ccc(Cl)cc2)sc2c(CN(C)C)c(O)ccc12
class name: inactive

molecule: Cn1c(I)c(C#CCO[Si](C)(C)C(C)(C)C)c(=O)[nH]c1=O
class name: inactive

molecule: c1ccc([P+](c2ccccc2)(c2ccccc2)c2ccc3c4ccc([P+](c5ccccc5)(c5ccccc5)c5ccccc5)c5cccc(c6cccc2c63)c54)cc1
class name: active

molecule: Nc1ncc(-c2ccc3ncnc(Nc4cccc(Cl)c4)c3c2)cn1
class name: inactive

molecule: COc1ccc(/C=N/NC(=O)c2ccc(-n3cc(-c4ccccc4)nn3)cc2)cc1OC
class name: inactive

molecule: N#CC1=C(N)Oc2c(c(=O)[nH]c3ccc(Cl)cc23)C12C(=O)c1ccccc1C2=O
class name: inactive

molecule: O=C(NCCCl)Nc1ncccc1OCc1ccccc1
class name: inactive

molecule: CS(=O)(=O)Nc1cncc(-c2ccc3ncnc(Nc4cncc(Cl)c4)c3c2)c1
class name: inactive

molecule: Cc1ccc(C)n1-c1ccccc1-n1c(C)ccc1C
class name: inactive

molecule: COC(=O)[C@@H](CCCCNC(=O)[C@]12CCC(C)(C)C[C@@H]1C1=CC[C@@H]3[C@@]4(C)C/C(=C/c5ccco5)C(=O)C(C)(C)[C@@H]4CC[C@@]3(C)[C@]1(C)CC2)NC(=O)[C@]12CCC(C)(C)C[C@@H]1C1=CC[C@@H]3[C@@]4(C)C/C(=C/c5ccco5)C(=O)C(C)(C)[C@@H]4CC[C@@]3(C)[C@]1(C)CC2
class name: inactive
